Test system: Melanoma
ASSAY_COMMENT: NCI GI50 on tumor cells, melanoma
Assay type: cell-based, human
TEST_PARAMETERS: Melanoma cell lines; NA = inactive products
Each record is given true if its reported GI50 is strictly below 30 µM. Records at or above 30 µM are given false.

COMPOUND: c1ccc(-c2nnc(-c3c[nH]c4c3Cc3ccccc3-4)o2)cc1 [Ic]
ASSIGNED_CLASS: true

COMPOUND: c1ccc2c(c1)Cc1c(-c3nnco3)c[nH]c1-2 [Ia]
ASSIGNED_CLASS: false

COMPOUND: c1ccc(-c2nnc(-c3c[nH]c4c3ccc3ccccc34)o2)cc1 [Il]
ASSIGNED_CLASS: true

COMPOUND: c1ccc2c(c1)CCc1c(-c3nnco3)c[nH]c1-2 [Ie]
ASSIGNED_CLASS: true

COMPOUND: Cc1nnc(-c2c[nH]c3c2Cc2ccccc2-3)o1 [Ib]
ASSIGNED_CLASS: false

COMPOUND: Cn1cc(-c2nnco2)c2ccc3ccccc3c21 [Im]
ASSIGNED_CLASS: false

COMPOUND: c1ccc2c(c1)ccc1c(-c3nnco3)c[nH]c12 [Ih]
ASSIGNED_CLASS: false

* * *

Test system: SNC
ASSAY_COMMENT: NCI GI50 on tumor cells, SNC
Assay type: cell-based, human
TEST_PARAMETERS: SNC cell lines; NA = inactive products
Each record is given Fulfilled if its reported GI50 is strictly below 30 µM. Records at or above 30 µM are given Not fulfilled.

SMILES_STR: c1ccc2c(c1)ccc1c(-c3nnco3)c[nH]c12
ASSIGNED_CLASS: Not fulfilled
//
SMILES_STR: Cc1nnc(-c2c[nH]c3c2Cc2ccccc2-3)o1
ASSIGNED_CLASS: Not fulfilled
//
SMILES_STR: c1ccc2c(c1)CCc1c(-c3nnco3)c[nH]c1-2
ASSIGNED_CLASS: Fulfilled
//
SMILES_STR: c1ccc(-c2nnc(-c3c[nH]c4c3Cc3ccccc3-4)o2)cc1
ASSIGNED_CLASS: Fulfilled
//
SMILES_STR: Cn1cc(-c2nnco2)c2ccc3ccccc3c21
ASSIGNED_CLASS: Fulfilled
//
SMILES_STR: c1ccc2c(c1)Cc1c(-c3nnco3)c[nH]c1-2
ASSIGNED_CLASS: Not fulfilled
//
SMILES_STR: c1ccc(-c2nnc(-c3c[nH]c4c3ccc3ccccc34)o2)cc1
ASSIGNED_CLASS: Fulfilled

* * *

Tested on: MCF7 breast, NCI-H460 microcitoma and SF-268 SNC
ASSAY_COMMENT: NCI preliminary tests on three cell lines, mean GI50
Assay type: cell-based, human
TEST_PARAMETERS: mean concentration causing 50% inhibition of cell growth; N.A. = inactive in preliminary tests on three cell lines
Each record is given MET if its reported GI50 μM) Mean is strictly below 40 µM. Records at or above 40 µM are given NOT MET.

SMILES_STR: c1ccc(-c2nnc(-c3c[nH]c4c3Cc3ccccc3-4)o2)cc1
SYSTEM_NAME: MCF7 breast, NCI-H460 microcitoma and SF-268 SNC
ASSIGNED_CLASS: MET
//
SMILES_STR: c1ccc(-c2nnc(-c3c[nH]c4c3ccc3ccccc34)o2)cc1
SYSTEM_NAME: MCF7 breast, NCI-H460 microcitoma and SF-268 SNC
ASSIGNED_CLASS: MET
//
SMILES_STR: c1ccc2c(c1)ccc1c(-c3nnco3)c[nH]c12
SYSTEM_NAME: MCF7 breast, NCI-H460 microcitoma and SF-268 SNC
ASSIGNED_CLASS: MET
//
SMILES_STR: Cc1nnc(-c2c[nH]c3c2Cc2ccccc2-3)o1
SYSTEM_NAME: MCF7 breast, NCI-H460 microcitoma and SF-268 SNC
ASSIGNED_CLASS: NOT MET
//
SMILES_STR: c1ccc2c(c1)Cc1c(-c3nnco3)c[nH]c1-2
SYSTEM_NAME: MCF7 breast, NCI-H460 microcitoma and SF-268 SNC
ASSIGNED_CLASS: NOT MET
//
SMILES_STR: c1ccc2c(c1)CCc1c(-c3nnco3)c[nH]c1-2
SYSTEM_NAME: MCF7 breast, NCI-H460 microcitoma and SF-268 SNC
ASSIGNED_CLASS: MET
//
SMILES_STR: Cn1cc(-c2nnco2)c2ccc3ccccc3c21
SYSTEM_NAME: MCF7 breast, NCI-H460 microcitoma and SF-268 SNC
ASSIGNED_CLASS: MET

FYI, the data here is from patent US20070173535A1.
